experiment: soluble fraction after stress (log2 fold change); higher = more stays soluble; pooled small domains, quantitative proteomics; settings: stress: pH 4
Result Type: soluble fraction (log2)

| Query Sequence | Recorded Value |
| --- | --- |
| HMTSEVPVGSNVRIRASTLAGERDFEGTMLPPAGEGLTTLKLVNGYNLSYPSKDVLDIEFLGGAGE | -0.367 |
| HMTSLGLEGLVNTTAIATSDLRPSGWALAGERKIFVVSEGEFIDNGDKIRILTVDGNRIVVRKETNK | -0.189 |
| HMFELTVGTPIRVIREPYFGKLGTVTELPAQLMVVESGTEVRVLKAKIEGEGEVLVPRANVEIIATG | -0.77 |
| HMGMAGILDSARMASFIQEKLGYGGGQIRASVMGGHGDDMVPLPRYSTVAGVPLSDVLTQNEIDEMFAQ | -0.259 |
| HMFPELTDDEQLIVSTLAKTNDMQINMLAVRTGIPVQRMSALLFSLEMKGVVKMYAGGTYHLL | -0.0499 |
| HMQDVVFTVDKDQTGAEIGDMLYEKGIISSPTTFRLALRLTGSMDKLQQGYYQIPQNASLRQVIALLQKG | -0.522 |
| HMSGSLLQTRQRLQALTDLGHYKGDLAAAWGPEAIEALKRAQAALGITVDGKWGPETEDAIQVALQAQT | -0.133 |
| HMQVEMVLSQEAHEWLLQRGFIPEYGAREMDRVIAAHLKPLLMREILFGTLKAGGKVRVQVENGALKLQP | -1.74 |
| HMEDQITNQQFTMTKQSILDLLVKKSYPPYELANELHLKKEEVLPIIRFLIAENEIHFKDGMLHLPH | -0.0688 |
| HMVTTADIILEFYSRNPNATLTQAAQHVARATGTTYSRQAISAQLKRLEVAGLVERNGHVTV | -0.47 |
| HMSFDENEALRKALDVFWEKGYDGTSLSDLTEAMGINKPSLYATFGNKDQLFLKAIEMYENR | -1.44 |
| HMAPAGGITRQDLFAWGLMGGEGSREKRQQLKKSLGLPSHLGTSGFLDALNLIATRDQVEALLHK | ≥ 0.43 |
| HMSEPIYTQLKEILTQKIVNGEFPPGARLPSEYELTELYHISRSTVRLALKELEASGMIVRRRGKGTFVSS | -0.0496 |
| HMTFPYTSLKDAPKNMKEIDGVPLTLDQVNQIAKVADSIGVSKEKNGYAIAKSQFKKSHHIENNRWVKNK | 0.126 |
| HMGIQYVASGHYARMETDAQGVSRLFPPESGAPDESDRLAALSPEVLTRLILPLGDFAPEDVEEMAVD | -0.294 |
| HMATNVLEISTRNKNILIQDSLNLVESFYSKSDNQYWYKLVFKTKDDLNKFLQEVSEDENTITYKTSSI | -0.194 |
| HMREVVLNRIGSVAVQRATTRTWEEWVVTLDAEGMRGKEHRDVVGHLLRAHELTSWWAQMVSVGYEQSRGQ | -0.155 |

---

assay: soluble fraction after stress (log2 fold change); higher = more stays soluble; pooled small domains, quantitative proteomics; conditions: stress: pH 4
A collection of sequences and their measured soluble fraction (log2)
Result Type: soluble fraction (log2)

| Query Sequence | Recorded Value |
| --- | --- |
| HMKKTDFNVENYDIEELAAILNFKYVPLNQGLIRDRIKDMKQRFKNKPEYIKFFTDVEIKLVNNLNLFN | -1.01 |
| HMDYLYHNGKEIDQGSIMYKMEDYSDGIFELQSAKYADGTELDEKELEELESTQELIDWVMIDFVS | -1.99 |
| HMREVGVPNLRGLTAEEAQIVLSNAGLNLRTEPIRRVHETITVGRIAEQDPMPDLTIRSQRSVTTWLSSGP | -0.268 |
| HMATPTEHQLQAQARAVVEKAERLLDRASADDREDIINLIEKITDALAAEDFTAVKAPLAELSDILFYLE | -0.27 |
| HMHIVQEGDSLYGIARQYRITVEELRSLNALETADVIVPYQKLYV | -1.14 |
| HMVSGVMAQQAIAVLVQQEDKHAPLSDQALAERLQVQGIDISRRTVAKYRQLLQIPSAATRR | -0.0405 |
| HMPILRDEVYLSIKEAILTGELAPGERISIGRLLPQIGFSPTPIREALLKLEQEGFVSRLQRGGFIVSR | -0.471 |
| HMIAGHLQIKNDYYYMVLSYTDSDGKRKQPWIPTGLPMKGNKKRAEKMLIETRQTYVPPVSSG | 0.203 |

---

test: soluble fraction after stress (log2 fold change); higher = more stays soluble; pooled small domains, quantitative proteomics; settings: stress: pH 4
Result Type: soluble fraction (log2)

| Query Sequence | Result Type | Bound Type | Recorded Value |
| --- | --- | --- | --- |
| HMHHIDYKQLRRINPVAARRAVLDYLESTGGNITKTAQVFSINRSVVYDILKKQASGDLSDRLRIP | soluble fraction (log2) | = | 0.249 |
| HMSTANISIEQAKEIALNHANLTSNQVIFSRTELDYDNGIQKYEVEFYYNNREYSYEINANTGDILGYEQ | soluble fraction (log2) | = | -0.417 |
| HMYDNTVTKYVNSLSVYVRKGPSTSDEIVTSLIKDTDVTVVGENGEWYKIKYKEFEGYIYKNLLSDNKT | soluble fraction (log2) | = | -0.125 |
| HMRNLYEILGVSKDAPQGEIKSAYRKLAKTYHPDLNPNNEKAAELFKEINQAYEVLSDETKRRHYDQFGEA | soluble fraction (log2) | ≥ | 0.43 |

---

experiment: soluble fraction after stress (log2 fold change); higher = more stays soluble; pooled small domains, quantitative proteomics; details: stress: pH 4
Would you please tag the item MET when its soluble fraction (log2) is 0.1 or above, and NOT MET when it is below?

| Query Sequence | Assigned Label |
| --- | --- |
| HMLSYDDTVVIGRNLLENAMKQKNIALEQLTDEVLARLAKELQVESVEAMYAGIGSGKRPSSFIINRLEAH | NOT MET |
| HMAQVDAVQQVLQAFPALRSGQSQHLSQVVAALRQRGILTVGTKTTAWFAQWASVFQLLPLQVPNRIRYQS | MET |
| HMANTAKVNVDTANLRETADENSKILKQLSLNDNLEVVEETGDWYKVKNSNVTGYVRKDLVTVEN | MET |
| HMSGLLTTSKLAQKHKMKTEPMLEKLTAAGYLEWRDDKHSLTEQGKKAGGQFKTGRFGAYFLWPEDLV | MET |
| HMSKNIRQQFLDVLPKTFDRNQYLETAKKLSINAKTAEGYIKKFVEANLLDHPKHNHYINLKKVEEVETK | NOT MET |
| HMNDTVGMNIRRLRKERGMTQGDLADKAGIQRETISKYESNKLTPPSYNLESIEKALKVPAGTLAQ | MET |
| HMSILEIFGRNVQKYRKEQRLSQEKLAEYAGLHRTYIGMIERAEKNITLVNIEKIAKALNINLTKLLE | NOT MET |
| HMKKAIYPGSFDPLTLGHIDIIKRASGIVDELVVGVLNNSAKNSLFSLDERVSMIEEMTKDLPNVSVTSFD | NOT MET |

---

experiment: soluble fraction after stress (log2 fold change); higher = more stays soluble; pooled small domains, quantitative proteomics; conditions: stress: pH 4
A collection of sequences and their measured soluble fraction (log2)
Result Type: soluble fraction (log2)

| Query Sequence | Recorded Value |
| --- | --- |
| HMHQALLEQSAEHAQQVKAYELLLTAERALDEENTEAFLSAMKSLKPLAENLDAKGKALYQELLPFVTEA | -0.425 |
| HMNEDDQLLKVLLAEPLRLEELYNLDLKPQGPYNLQTWIMVHLTELERDGLIARFPDGRYGPAR | -1.57 |
| HMSSHNIALDQDVVVTQLKGKVYLVAADGSQKQLAEGDILPKDAVLITPEGASFKGGNQTFTLS | -0.235 |
| HMDSVFGVVTSSDGVKLRKEASTISKVLTVLPYGTEVDVDRIGSEWIRIVTDGGQKGYVSADYLAVREGER | -0.1 |
| HMNDNQNKQMLWELLKDNRAFDNFDNKDYKTIIHLFNETVNTIDHRTPNLDLIKKNKIFIQDIMQKLSNL | -1.04 |
| HMGTPSAEELAFSAQKGNAVMRIMEIREKYIENGGQISDEERNEIERLIAIYYPKASIFDYLPMMG | -1.42 |
| HMSLSIKINHESVGLRLDQFLQEHYYKQQSRSYVQHAIKEGYILVNGQSVKNGYMLKLDDLIELEAI | -0.166 |
| HMSQLLHELLAHVLKDRIISGEWPAGSRIMSEHALQERYGVSRGTVRRALAQLVQEGLLVQRKGKGTFVTR | 0.35 |
| HMQRSVNYSELHEIKERVFDALYSSPMSMPDLLAWLKGDEEHTISVIRLMQDNGDIEMGEDGRLAVV | -0.629 |
| HMSPFYILDEVEAALDDTNLGRLLEIYEELRENSQLLVITHQKRTMEVGDALYGVTMRGDGVSAVISQRLR | -1.74 |
| HMPDPVHAAYLRLAVLLTEQAIGPQVTEQQIRDRFALTRRQTSDLMGRLIREGIAEKRAGYGWNINTELTA | -0.748 |
| HMDGQGIRSITPEYYLSDSATKMPDASSSGWKSVPDDYIDKHYYWVRSKILWDDGTYTTTTPVL | -0.291 |
| HMIRMPNLIGLSVRSAEQQLVIAGLKKGIVHQVNDPRLKEVIDMQALGHKITAGSSIPKGTEVDLYIGNGT | 0.282 |
| HMHGYLSDPAARLIRARRKTLSIRITQEGNLEIRAPLGMPKGEIEAFLKEKAQWIETHRAKVLAEYA | -0.138 |
| HMPPNVLSEREQEVLQLAADGMSNKEMGSELYIAPTTVRDHMQSIMRKLQVNSRTAAAVAGLKLGLLD | -0.422 |
| HMGISNEETFLLEKMSSGRRYSRKELDNLMGFEKTKTIRLLGSLINKGLVVAEGVNRARRYIR | -0.00925 |
| HMHTDQVLVMTRAVGQGEIVRNTDVGLTSVAVDRAVTTIPASQLDEIVGRHALVDLSAGQLLGSHSVGA | -0.0551 |
